Catalogue of compounds with associated pIC50
- System: HEK-293T
- protocol_summary: Cytotoxicity against HEK293T cells after 72 hrs by MTT assay
- Format: cell-based
- assay_conditions: Homo sapiens
pIC50: −log10 of the molar value.

Sample records with pIC50:
{"columns": ["structure_notation", "pIC50"],
 "data": [
  ["O=C(c1ccc(O)cc1O)n1cc2c(=O)oc3ccccc3c2n1", "< 3.70"],
  ["O=C(c1ccco1)n1cc2c(=O)oc3ccccc3c2n1", "< 3.70"],
  ["O=C(N/N=C/c1c(Cl)c2ccccc2oc1=O)c1ccc(Cl)cc1", 4.68]
]}

Here is another compound to look at.
Data request: Specify the recorded pIC50 for `COc1ccc(C(=O)n2cc3c(=O)oc4ccccc4c3n2)cc1` , system: HEK-293T.
Data returned: < 3.70

---

- protocol_summary: Selectivity index, ratio of IC50 for HEK293T cells to MIC for Mycobacterium tuberculosis H37Rv
- Format: toxicity
- assay_conditions: human, read-out: Selectivity Index
Catalogue of molecules with associated selectivity ratio
// return just the number, without any unit appended

Sample records with selectivity ratio:
{"columns": ["structure_notation", "selectivity ratio"],
 "data": [
  ["COc1ccc(C(=O)N/N=C/c2c(Cl)c3ccccc3oc2=O)cc1", 403],
  ["O=C(N/N=C/c1c(Cl)c2ccccc2oc1=O)c1ccc(Cl)cc1", 33],
  ["O=C(N/N=C/c1c(Cl)c2ccccc2oc1=O)c1ccco1", 236]
]}

Data request: Look up selectivity ratio of `CN(C)c1ccc(C(=O)N/N=C/c2c(Cl)c3ccccc3oc2=O)cc1` and report it.
Data returned: 20

---

- protocol_summary: Stability of the compound in DMSO-d6 solvent measured every 8 hrs for 12 days by 1H NMR spectra analysis
- Assay type: physicochemical
- assay_conditions: 288 h
readout_label: Stability

Sample records with Stability:
{"columns": ["structure_notation", "test_value"],
 "data": [
  ["COc1ccc(C(=O)n2cc3c(=O)oc4ccccc4c3n2)cc1", "Stable"],
  ["COc1ccc(C(=O)N/N=C/c2c(Cl)c3ccccc3oc2=O)cc1", "Stable"],
  ["O=C(c1ccc(O)cc1O)n1cc2c(=O)oc3ccccc3c2n1", "Stable"],
  ["CN(C)c1ccc(C(=O)N/N=C/c2c(Cl)c3ccccc3oc2=O)cc1", "Stable"],
  ["CN(C)c1ccc(C(=O)n2cc3c(=O)oc4ccccc4c3n2)cc1", "Stable"]
]}

Data request: Look up Stability of `O=C(N/N=C/c1c(Cl)c2ccccc2oc1=O)c1ccc(Cl)cc1` and report it.
Data returned: Stable

Data request: Look up Stability of `O=C(N/N=C/c1c(Cl)c2ccccc2oc1=O)c1ccco1` and report it.
Data returned: Stable

---

- System: HEK-293T
- protocol_summary: Cytotoxicity against HEK293T cells after 72 hrs by MTT assay
- Assay type: cell-based
- assay_conditions: Homo sapiens
Catalogue of compounds with associated IC50

Sample records with IC50:
{"columns": ["structure_notation", "target_of_assay", "IC50"],
 "data": [
  ["Cc1occc1C(=O)n1cc2c(=O)oc3ccccc3c2n1", "HEK-293T", "> 200 µM"],
  ["O=C(c1ccc(O)cc1)n1cc2c(=O)oc3ccccc3c2n1", "HEK-293T", "> 200 µM"],
  ["COc1ccc(C(=O)N/N=C/c2c(Cl)c3ccccc3oc2=O)cc1", "HEK-293T", "113 µM"],
  ["O=C(N/N=C/c1c(Cl)c2ccccc2oc1=O)c1ccco1", "HEK-293T", "63.6 µM"],
  ["CN(C)c1ccc(C(=O)N/N=C/c2c(Cl)c3ccccc3oc2=O)cc1", "HEK-293T", "18.7 µM"]
]}

Here is another compound to look at.
Data request: Look up IC50 of `CN(C)c1ccc(C(=O)n2cc3c(=O)oc4ccccc4c3n2)cc1` and report it.
Data returned: > 200 µM

---

- protocol_summary: Selectivity index, ratio of IC50 for HEK293T cells to MIC for Mycobacterium tuberculosis H37Rv
- Format: toxicity
- assay_conditions: human, read-out: Selectivity Index
readout_label: selectivity ratio

{"columns": ["structure_notation", "readout_label", "test_value"],
 "data": [
  ["O=C(c1ccc(O)cc1)n1cc2c(=O)oc3ccccc3c2n1", "selectivity ratio", "> 625"]
]}

Data request: Look up selectivity ratio of `COc1ccc(C(=O)n2cc3c(=O)oc4ccccc4c3n2)cc1` and report it.
Data returned: > 645

Data request: Look up selectivity ratio of `O=C(c1ccco1)n1cc2c(=O)oc3ccccc3c2n1` and report it.
Data returned: > 282

Data request: Look up selectivity ratio of `CN(C)c1ccc(C(=O)n2cc3c(=O)oc4ccccc4c3n2)cc1` and report it.
Data returned: > 408

Data request: Look up selectivity ratio of `O=C(c1ccc(O)cc1O)n1cc2c(=O)oc3ccccc3c2n1` and report it.
Data returned: > 308

Data request: Look up selectivity ratio of `Cc1occc1C(=O)n1cc2c(=O)oc3ccccc3c2n1` and report it.
Data returned: > 119
